Origin of measurements: patent US20070111981A1

So I've got IC50 readings for hMCH-1R (Homo sapiens, UniProt Q99705), take a look.
Numbers only, in nM.

1. CCN(CC)CCOc1ccc(OCCOc2ccc(I)cc2Cl)cc1Cl = 172

Look up IC50 for this compound: COc1ccc(-c2ccc(CCCNc3ccc(CN4CCC(NC(C)=O)C4)cc3)nn2)cc1 (centres unmarked) 79
